Reference for the values: the FLAb antibody collection (doi:10.7554/elife.23156)

B1: scFv; the commonest letter at each place (parent)
chain 1: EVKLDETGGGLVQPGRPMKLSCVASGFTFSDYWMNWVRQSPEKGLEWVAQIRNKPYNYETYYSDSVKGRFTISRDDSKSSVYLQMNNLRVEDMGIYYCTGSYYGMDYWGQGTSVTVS
chain 2: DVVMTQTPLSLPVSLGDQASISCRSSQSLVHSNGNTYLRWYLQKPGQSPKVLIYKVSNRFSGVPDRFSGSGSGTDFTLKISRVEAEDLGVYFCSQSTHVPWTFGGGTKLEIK

# Variants of: B1
# METHOD_SUMMARY: yeast surface expression (ratio to wild type); higher = more expressed
# CONDITION_PARAMETERS: format: scFv 4-4-20, heavy + light
Decision: yeast surface expression >= 0.5 yields label 1, all other cases yield label 0.

chain 1 S101Q D106N ... label 1
chain 1 W33I V37S ... label 1
chain 1 G100T M105T ... label 1
chain 1 G100I Y107D ... label 0

Test whether the variant chain 1 F29S W33H records yeast surface expression of 0.5 or higher.
label 1
